SYSTEM_NAME: T1, full-length beta-Catenin (Uniprot ID P35222) (Homo sapiens (Human), UniProt P35222 2-781)
T1 construct: also called B-Catenin; bCat
T1 sequence: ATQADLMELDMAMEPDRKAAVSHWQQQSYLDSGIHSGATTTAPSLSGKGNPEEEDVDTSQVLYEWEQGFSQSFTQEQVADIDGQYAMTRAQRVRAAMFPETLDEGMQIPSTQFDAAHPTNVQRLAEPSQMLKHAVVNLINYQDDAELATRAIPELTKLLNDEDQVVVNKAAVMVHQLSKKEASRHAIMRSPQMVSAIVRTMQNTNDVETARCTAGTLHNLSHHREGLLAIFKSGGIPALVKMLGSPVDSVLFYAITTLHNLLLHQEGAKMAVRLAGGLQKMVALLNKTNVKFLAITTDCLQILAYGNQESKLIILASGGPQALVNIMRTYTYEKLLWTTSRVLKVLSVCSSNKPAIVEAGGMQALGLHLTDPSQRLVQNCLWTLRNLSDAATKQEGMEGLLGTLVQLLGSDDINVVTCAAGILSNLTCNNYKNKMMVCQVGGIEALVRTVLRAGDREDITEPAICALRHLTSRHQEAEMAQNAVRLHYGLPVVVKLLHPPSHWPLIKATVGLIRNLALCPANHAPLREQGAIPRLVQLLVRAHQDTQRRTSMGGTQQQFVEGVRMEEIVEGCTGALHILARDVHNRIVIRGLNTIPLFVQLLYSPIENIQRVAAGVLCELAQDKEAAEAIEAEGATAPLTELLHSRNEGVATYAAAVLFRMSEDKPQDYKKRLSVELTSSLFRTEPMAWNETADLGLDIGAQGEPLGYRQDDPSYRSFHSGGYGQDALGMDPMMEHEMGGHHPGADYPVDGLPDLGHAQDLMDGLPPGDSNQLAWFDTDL
TEST_DETAILS: Alphascreen competition; biotin-TCF4(10-53) probe with full-length beta-catenin
Method: Equal volume of the titrated peptide was added to the plate and incubated for 15 minutes at 20° C. Then 4 uL of donor and 4 uL acceptor beads at 10 ug/mL were added to the plate, for a 16 uL reaction pool and protected from light for 60 minutes at 20° C. prior to read. Reads were performed on a CLARIOstar plate reader (BMG Labtech) in duplicate, and data were fitted to a 1:1 binding model with hill slope using an in-house script. All provided concentrations are final concentrations.
Starred links: 1 amine or outer side, 2 acyl side, 3 side chain; linkers in the order of their positions; H or OH if unused. Positions of bridges follow the written chain, without caps; N, C: chain ends. Non-standard residues stand in square brackets, D forms with d. Primed or numbered codes have the meaning given here. PyrS(3) = (S)-1-((allyloxy)carbonyl)-3-aminopyrrolidine-3-carboxylic acid, stapling residue, C=CCOC(=O)N1CC[C@@](N[*:1])(C(=O)[*:2])C1; B5(33) = 2-amino-2-(pent-4-en-1-yl)hept-6-enoic acid (bis-pentenylglycine, two olefin side chains), C=CCCCC(CCCC=C)(N[*:1])C(=O)[*:2]; PyrS″ = (S)-1-((allyloxy)carbonyl)-3-aminopyrrolidine-3-carboxylic acid (stapling residue), C=CCOC(=O)N1CC[C@@](N[*:1])(C(=O)[*:2])C1; 2Nal = N[C@@H](Cc1ccc2ccccc2c1)C(=O)O; αAllylPro = C=CC[C@@]1(C(=O)O)CCCN1; hPhe = N[C@@H](CCc1ccccc1)C(=O)O; R8 = C=CCCCCCC[C@@](C)(N)C(=O)O; S8 = C=CCCCCCC[C@](C)(N)C(=O)O
Some binders, each annotated with its measured EC50.
PROPERTY_LABEL: EC50 (µM)

- Ac-FDA[R8]DDAA[hPhe]V[PyrS(3)]FWQ-NH2 (staple 4-11, Stapled peptide composition) [I-118]: 4.36
- Ac-FDA[R8]DDAA[2Nal]V[PyrS″]FWQ-NH2 (staple 4-11, Stapled peptide composition) [I-113]: 6.2
- Ac-[αAllylPro]DA[B5(33)]DQAAFV[S8]FWQ-NH2 (staple 1-4, 4-11, Stitched (two-staple) peptide composition) [I-126]: 1.48
